Molecular target: β5 subunit of the human immunoproteasome (IPS) (Homo sapiens, UniProt P28062)
Assay: β5 inhibition assay, human immunoproteasome (Suc-LLVY-AMC)
Settings: IC50 class, Suc-LLVY-AMC substrate

{"columns": ["Compound", "Target or system", "IC50"],
 "data": [
  ["Cc1ccc2cc1CNC(=O)[C@H](CCc1ccccc1)NC(=O)[C@@H](NC(=O)CCNC(=O)C1CC3CCC1O3)CC(=O)N1CCCC(CCO2)C1 (stereo partly drawn)", "β5 subunit of the human immunoproteasome (IPS) (Homo sapiens, UniProt P28062)", "< 100 nM"],
  ["CC(=O)N[C@H]1CC(=O)N2CCCC(CCOc3ccc(C)c(c3)CNC(=O)C(CCc3cccnc3)NC1=O)C2 (stereo partly drawn)", "β5 subunit of the human immunoproteasome (IPS) (Homo sapiens, UniProt P28062)", "< 100 nM"],
  ["Cc1ccc2cc1CNC(=O)[C@H](CCc1ccccc1)NC(=O)[C@@H](NC(=O)CC(C)(C)C)CC(=O)N1CCCC(CCO2)C1 (stereo partly drawn)", "β5 subunit of the human immunoproteasome (IPS) (Homo sapiens, UniProt P28062)", "< 100 nM"]
]}

----------
Target: β5 subunit of the human constitutive proteasome (CPS) (Homo sapiens)
Experiment: β5 inhibition assay, human constitutive proteasome (Suc-LLVY-AMC)
Details: IC50 class, Suc-LLVY-AMC substrate
pIC50: −log10 of the molar value.
pIC50 overview
Outcome measure: pIC50

{"columns": ["Compound", "Outcome measure", "Recorded result"],
 "data": [
  ["Cc1ccc2cc1CNC(=O)[C@H](CCc1ccccc1)NC(=O)[C@@H](NC(=O)OCc1ccccc1)CC(=O)N1CC(CCO2)Cc2ccccc21 (stereo partly drawn)", "pIC50", "< 5.30"],
  ["Cc1ccc2cc1CNC(=O)C(CCc1cnc3cccnc3c1)NC(=O)[C@@H](NC(=O)OCc1ccccc1)CC(=O)N1CCCC(CCO2)C1 (stereo partly drawn)", "pIC50", "> 7.00"],
  ["Cc1ccc2cc1CNC(=O)[C@H](CCc1ccccc1)NC(=O)[C@@H](NC(=O)CCN1CC3(CCOCC3)C1)CC(=O)N1CCCC(CCO2)C1 (stereo partly drawn)", "pIC50", "> 7.00"],
  ["Cc1ccc2cc1CNC(=O)[C@H](CCc1ccccc1)NC(=O)[C@@H](NC(=O)OCc1ccccc1)CC(=O)N1CCCC(CCO2)C1 (stereo partly drawn)", "pIC50", "> 7.00"],
  ["Cc1ccc2cc1CNC(=O)[C@H](CCc1ccccc1)NC(=O)[C@@H](NC(=O)Cc1ccccn1)CC(=O)N1CCCC(CCO2)C1 (stereo partly drawn)", "pIC50", "> 7.00"],
  ["CCOC(=O)N[C@H]1CC(=O)N2CCCC(CCOc3ccc(C)c(c3)CNC(=O)C(c3cnn(C)c3)NC1=O)C2 (stereo partly drawn)", "pIC50", "> 7.00"]
]}

----------
System: Hs 746T (human gastric carcinoma cell line)
Assay: 48 hr CTG viability assay, Hs 746T
Format: cell-based
Settings: Hs746T, 48 hr CTG, read-out: Hs 746T IC50
pIC50: −log10 of the molar value.
pIC50 overview

{"columns": ["Compound", "pIC50"],
 "data": [
  ["Cc1ccc2cc1CNC(=O)[C@H](CCc1ccccc1)NC(=O)[C@@H](NC(=O)CCNC1CC3(COC3)C1)CC(=O)N1CCCC(CCO2)C1 (stereo partly drawn)", "6.00 to 6.30"],
  ["COCCOCCC(=O)N[C@H]1CC(=O)N2CCCC(CCOc3ccc(C)c(c3)CNC(=O)[C@H](CCc3ccccc3)NC1=O)C2 (stereo partly drawn)", "> 7.00"],
  ["CCN1CCN(C(=O)N[C@H]2CC(=O)N3CCCC(CCOc4ccc(C)c(c4)CNC(=O)[C@H](CCc4ccccc4)NC2=O)C3)CC1 (stereo partly drawn)", "> 7.00"],
  ["COc1ccc(CCOCCC(=O)N[C@H]2CC(=O)N3CCCC(CCOc4ccc(C)c(c4)CNC(=O)[C@H](CCc4ccccc4)NC2=O)C3)cc1 (stereo partly drawn)", "> 7.00"],
  ["Cc1ccc2cc1CNC(=O)[C@H](CCc1ccccc1)NC(=O)[C@@H](NC(=O)CCNC(=O)c1ccc(C3CCCCC3)cc1)CC(=O)N1CCCC(CCO2)C1 (stereo partly drawn)", "> 7.00"],
  ["Cc1ccc2cc1CNC(=O)[C@H](CCc1ccccc1)NC(=O)[C@@H](NC(=O)Cc1ccc(N)cc1C)CCCC(=O)NCCCCO2", "6.30 to 7.00"],
  ["Cc1ccc2cc1CNC(=O)[C@H](CCc1ccccc1)NC(=O)[C@@H](NC(=O)CCNC(=O)C1CC3CCC1C3)CC(=O)N1CCCC(CCO2)C1 (stereo partly drawn)", "> 7.00"],
  ["Cc1ccc2cc1CNC(=O)[C@H](CCc1ccccc1)NC(=O)[C@@H](NC(=O)CCO[C@H]1C[C@@H]3CC[C@H]1C3)CC(=O)N1CCCC(CCO2)C1", "> 7.00"],
  ["Cc1ccc2cc1CNC(=O)[C@H](CCc1ccccc1)NC(=O)[C@@H](NCC(F)(F)F)CC(=O)N1CCCC(CCO2)C1 (stereo partly drawn)", "6.30 to 7.00"],
  ["Cc1ccc2cc1CNC(=O)[C@H](CCc1ccccc1)NC(=O)[C@@H](NC(=O)CCOCC1CC3(CCC3)C1)CC(=O)N1CCCC(CCO2)C1 (stereo partly drawn)", "> 7.00"],
  ["Cc1ccc2cc1CNC(=O)[C@H](CCc1ccccc1)NC(=O)[C@@H](NC1CC3CCC1C3)CC(=O)N1CCCC(CCO2)C1 (stereo partly drawn)", "6.30 to 7.00"],
  ["Cc1ccc2cc1CNC(=O)[C@H](CCc1ccccc1)NC(=O)[C@@H](NC(=O)C13CC(N)(C1)C3)CC(=O)N1CCCC(CCO2)C1 (stereo partly drawn)", "> 7.00"]
]}
